# maps each entry to its pKi
molecular target: CRTH2 receptor (hCRTH2) (Homo sapiens, UniProt Q9Y5Y4); construct: expressed in transfected cells; host or cells: HEK cells (HEK-hCRTH2 cell line), membranes; experiment: Radioligand binding assay ([3H]PGD2 competition, membranes of HEK-hCRTH2 cell line); conditions: 3.0 nM [3H]PGD2, HEK-hCRTH2 membranes, 60 min, room temperature; read-out: Ki
Sequence (Q9Y5Y4 whole entry): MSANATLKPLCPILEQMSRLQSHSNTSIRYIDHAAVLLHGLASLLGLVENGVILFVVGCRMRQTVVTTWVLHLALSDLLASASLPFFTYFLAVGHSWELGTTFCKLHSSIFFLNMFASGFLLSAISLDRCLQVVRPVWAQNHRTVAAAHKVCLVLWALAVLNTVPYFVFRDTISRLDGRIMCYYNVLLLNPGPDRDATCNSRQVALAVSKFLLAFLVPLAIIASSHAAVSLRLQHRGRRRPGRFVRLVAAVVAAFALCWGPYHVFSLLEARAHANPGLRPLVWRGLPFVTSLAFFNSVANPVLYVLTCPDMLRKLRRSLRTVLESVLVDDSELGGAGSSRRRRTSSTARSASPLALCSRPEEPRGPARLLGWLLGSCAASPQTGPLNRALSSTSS
pKi: −log10 of the molar value.

Asked: Returns the measured pKi for the input molecule. Input: CC1(c2nc3ccccc3o2)CC(c2ccc3c(=O)n(-c4ccc(Cl)cc4)c(CCCCC(=O)O)nc3c2)=NO1 (stereo not shown)
Given back: ≥ 8.00

Asked: Next molecule up: O=C(O)CCCCc1nc2cc(-c3cc(C(O)(c4ccccc4)C(F)(F)F)on3)ccc2c(=O)n1-c1ccc(F)cc1 (stereo not shown)
Given back: 7.30 to 8.00

Asked: Okay, and `C[C@@]1(c2cccc(Br)c2)CC(c2ccc3c(=O)n(-c4ccc(F)cc4)c(CCCCC(=O)O)nc3c2)=NO1` ?
Given back: ≥ 8.00

Asked: Same question for `C[C@]1([C@H](O)c2cccc(C#N)c2)CC(c2ccc3c(=O)n(-c4ccc(F)cc4)c(CCCCC(=O)O)nc3c2)=NO1` please.
Given back: 7.30 to 8.00

Asked: Please give the result for O=C(O)CCCCc1nc2cc(-c3noc(C4CCc5ccccc5C4)n3)ccc2c(=O)n1-c1ccc(F)cc1 (stereo not shown) [Example 246] too.
Given back: ≥ 8.00

Asked: Entry to check: O=C(O)CCCCc1nc2cc(C3=NOC(c4nc5ccc(Cl)cc5s4)C3)ccc2c(=O)n1-c1ccc(F)cc1 (stereo not shown)
Given back: ≥ 8.00

Further cases:
Asked: Quick one: pKi for `C[C@]1(Cc2ccc(F)cc2)CC(c2ccc3c(=O)n(-c4ccc(F)cc4)c(CCCCC(=O)O)nc3c2)=NO1` ?
Given back: 7.30 to 8.00

The origin of these recorded values is patent US8927559B2.
